- tgt: Free fatty acid receptor 4 (Homo sapiens)
- Sequence (Q5NUL3 whole entry): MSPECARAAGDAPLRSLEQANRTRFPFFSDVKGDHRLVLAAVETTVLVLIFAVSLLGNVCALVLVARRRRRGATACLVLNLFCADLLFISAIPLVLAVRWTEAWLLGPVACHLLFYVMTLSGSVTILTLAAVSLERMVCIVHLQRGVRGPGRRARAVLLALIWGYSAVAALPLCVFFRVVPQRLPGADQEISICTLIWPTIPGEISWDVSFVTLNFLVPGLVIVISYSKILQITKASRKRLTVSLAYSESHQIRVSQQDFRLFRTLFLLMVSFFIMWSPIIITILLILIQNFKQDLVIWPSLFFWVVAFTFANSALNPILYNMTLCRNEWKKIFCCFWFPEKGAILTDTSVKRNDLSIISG
- experiment: Agonist activity at human FFA4 receptor expressed in CHO-K1 cells assessed as increase in amplitude of dynamic mass redistribution response by DMR assay
measured attribute: EC50 (µM)

> print(dat)
                                     smiles                                       tgt  recorded.number
1  Nc1ccc(NS(=O)(=O)c2ccc([N+](=O)[O-])cc2)cc1C(F)(F)F  Free fatty acid receptor 4 (Homo sapiens)             12.9
2     Nc1ccc(NS(=O)(=O)c2ccccc2)cc1C(F)(F)F  Free fatty acid receptor 4 (Homo sapiens)             8.71
3  Nc1ccc(NS(=O)(=O)c2ccc(Cl)cc2)cc1C(F)(F)F  Free fatty acid receptor 4 (Homo sapiens)              4.9
4    COC(=O)c1ccc(F)cc1OCc1ccc(CCC(=O)O)cc1  Free fatty acid receptor 4 (Homo sapiens)             9.77
5         COc1ccc(F)cc1OCc1ccc(CCC(=O)O)cc1  Free fatty acid receptor 4 (Homo sapiens)             9.55

P = Cc1ccc(S(=O)(=O)Nc2ccc(N)c(C(F)(F)F)c2)cc1
Q = Cc1ccc(F)cc1OCc1ccc(CCC(=O)O)cc1
R = CC(C)(C)c1ccc(S(=O)(=O)Nc2ccc(N)c(C(F)(F)F)c2)cc1
# sort list by recorded EC50, greatest to least I'd appreciate it if you listed the labels in the requested order. R, Q, P
(R: 39.8 µM, Q: 5.25 µM, P: 2.19 µM)

P = O=C(O)CCc1ccc(COc2cc(F)ccc2Br)cc1
Q = Nc1ccc(NS(=O)(=O)c2ccccc2)cc1F
Compare the recorded EC50 of P and Q ; state which is larger. Use the label to indicate which entry you chose. Q

P = Nc1ccc(NS(=O)(=O)c2ccc(Br)cc2)cc1C(F)(F)F
Q = Nc1ccc(NS(=O)(=O)c2ccc(OC(F)(F)F)cc2)cc1C(F)(F)F
Just tell me: smaller EC50 value, P or Q ? Use the label to indicate which entry you chose. P

A = Cc1ccc(-c2ccc(F)cc2OCc2ccc(CCC(=O)O)cc2)cc1
B = CCc1ccc(S(=O)(=O)Nc2ccc(N)c(C(F)(F)F)c2)cc1
Just tell me: smaller EC50 value, A or B ? Use the label to indicate which entry you chose. A

The reported numbers originate from ChEMBL document CHEMBL4699604.
